molecular target: Serine/threonine-protein kinase 24 (Homo sapiens, UniProt Q9Y6E0); assay: Inhibition of MST3 (unknown origin) expressed in lysed HEK293T cells using NanoGlo as substrate incubated for 20 hrs by NanoBRET assay; type: cell-based
Sequence (Q9Y6E0 whole entry): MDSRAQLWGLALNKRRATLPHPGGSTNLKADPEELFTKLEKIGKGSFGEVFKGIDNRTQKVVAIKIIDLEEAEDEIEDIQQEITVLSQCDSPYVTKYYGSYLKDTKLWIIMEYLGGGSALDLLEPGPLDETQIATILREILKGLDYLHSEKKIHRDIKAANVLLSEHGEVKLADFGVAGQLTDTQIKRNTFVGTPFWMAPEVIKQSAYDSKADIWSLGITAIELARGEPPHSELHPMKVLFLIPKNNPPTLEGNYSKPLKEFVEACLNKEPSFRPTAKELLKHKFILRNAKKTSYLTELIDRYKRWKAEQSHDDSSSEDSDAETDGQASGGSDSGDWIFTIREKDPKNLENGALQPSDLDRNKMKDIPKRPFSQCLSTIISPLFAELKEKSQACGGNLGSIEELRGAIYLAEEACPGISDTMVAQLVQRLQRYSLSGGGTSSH
Each item that follows carries a reported pEC50.
Please note pEC50 is a logarithmic value: minus log10 of concentration in mol/L. Answer with that number alone.

1) Cc1cccc(-c2ccc(-c3cc4cnc(NC(CO)CO)nc4n(CCCCN)c3=O)c(Cl)c2)n1 ... 7.09
2) COc1ccc(O)c(Nc2ncc3cc(-c4ccc(-c5cccc(C)n5)cc4Cl)c(=O)n(CCCCN)c3n2)c1 ... 6.79

The recorded pEC50 for entry `COc1cc(N2CCOCC2)ccc1Nc1ncc2cc(-c3ccc(-c4cccc(C)n4)cc3Cl)c(=O)n(CCCCN)c2n1` equals 6.94

###

biological target: Serine/threonine-protein kinase 4 (Homo sapiens); test: Binding affinity to recombinant MST1 (unknown origin) assessed as change in melting temperature by DSF analysis
Readout: ΔTm (°C)
Write the number in °C without appending the unit.

The recorded ΔTm for entry `CNc1ncc2cc(-c3ccc(-c4cccc(C)n4)cc3Cl)c(=O)n(CCOC)c2n1` equals 3.9

The recorded ΔTm for entry `CNc1ncc2cc(-c3ccc(-c4cccc(C)n4)cc3Cl)c(=O)n(CCCCO)c2n1` equals 3.8

The recorded ΔTm for entry `Cc1cccc(-c2ccc(-c3cc4cnc(Nc5ccc(F)c(CO)c5)nc4n(CCCCN)c3=O)c(Cl)c2)n1` equals 8.6

The recorded ΔTm for entry `Cc1cccc(-c2ccc(-c3cc4cnc(NCCCc5ccc(N)cc5)nc4n(CCCCN)c3=O)c(Cl)c2)n1` equals 4.9

The recorded ΔTm for entry `Cc1cccc(-c2ccc(-c3cc4cnc(Nc5ccc(C)c(O)c5)nc4n(CCCCN)c3=O)c(Cl)c2)n1` equals 8.1

###

Biological target: Serine/threonine-protein kinase 4 (Homo sapiens) (UniProt Q13043)
Sequence (whole entry): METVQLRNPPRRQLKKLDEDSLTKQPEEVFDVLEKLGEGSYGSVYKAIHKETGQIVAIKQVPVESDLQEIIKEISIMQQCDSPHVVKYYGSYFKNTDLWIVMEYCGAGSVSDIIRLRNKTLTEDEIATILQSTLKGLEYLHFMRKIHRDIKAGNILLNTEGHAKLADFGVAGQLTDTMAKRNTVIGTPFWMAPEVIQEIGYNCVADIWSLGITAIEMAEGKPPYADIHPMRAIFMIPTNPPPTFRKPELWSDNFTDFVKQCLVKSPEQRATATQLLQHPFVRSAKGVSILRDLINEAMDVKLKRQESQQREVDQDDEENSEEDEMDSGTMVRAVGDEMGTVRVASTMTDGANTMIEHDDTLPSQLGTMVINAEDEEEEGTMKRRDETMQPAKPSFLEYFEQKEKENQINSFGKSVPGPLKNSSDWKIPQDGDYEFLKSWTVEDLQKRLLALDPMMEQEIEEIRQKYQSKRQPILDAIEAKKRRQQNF
Experiment: Binding affinity to recombinant MST1 (unknown origin) assessed as change in melting temperature by DSF analysis
Each item that follows carries a reported ΔTm.
Answer with the number, then the unit.

Example entries and their recorded answers appear below.
1) Cc1cccc(-c2ccc(-c3cc4cnc(Nc5ccc(O)cc5)nc4n(CCCCN)c3=O)c(Cl)c2)n1 ... 8 °C
2) CNc1ncc2cc(-c3ccc(-c4cccc(C)n4)cc3Cl)c(=O)n(CCCCCO)c2n1 ... 2.4 °C
3) CNc1ncc2cc(-c3ccc(-c4cccc(C)n4)cc3Cl)c(=O)n(CCCO)c2n1 ... 3.4 °C

Now take the following compound into account.
The recorded ΔTm for entry `CNc1ncc2cc(-c3ccc(-c4cccc(C)n4)cc3Cl)c(=O)n(CCCOC)c2n1` equals 3.6 °C

###

target: Serine/threonine-protein kinase 3 (Homo sapiens); assay: Inhibition of MST2 (unknown origin) expressed in HEK293T cells using NanoGlo as substrate incubated for 20 hrs by NanoBRET assay
Readout: EC50

1. CNc1ncc2cc(-c3ccc(-c4cccc(C)n4)cc3Cl)c(=O)n(CCCCN)c2n1 ... 2.6 µM
2. Cc1cccc(-c2ccc(-c3cc4cnc(NCCCN5CCNCC5)nc4n(CCCCN)c3=O)c(Cl)c2)n1 ... > 50 µM

The recorded EC50 for entry `Cc1cccc(-c2ccc(-c3cc4cnc(NC(CO)CO)nc4n(CCCCN)c3=O)c(Cl)c2)n1` equals > 50 µM

###

biological target: Serine/threonine-protein kinase PAK 1 (Homo sapiens) (UniProt Q13153); assay: Binding affinity to recombinant PAK1 (unknown origin) assessed as change in melting temperature by DSF analysis
Sequence (Q13153 whole entry): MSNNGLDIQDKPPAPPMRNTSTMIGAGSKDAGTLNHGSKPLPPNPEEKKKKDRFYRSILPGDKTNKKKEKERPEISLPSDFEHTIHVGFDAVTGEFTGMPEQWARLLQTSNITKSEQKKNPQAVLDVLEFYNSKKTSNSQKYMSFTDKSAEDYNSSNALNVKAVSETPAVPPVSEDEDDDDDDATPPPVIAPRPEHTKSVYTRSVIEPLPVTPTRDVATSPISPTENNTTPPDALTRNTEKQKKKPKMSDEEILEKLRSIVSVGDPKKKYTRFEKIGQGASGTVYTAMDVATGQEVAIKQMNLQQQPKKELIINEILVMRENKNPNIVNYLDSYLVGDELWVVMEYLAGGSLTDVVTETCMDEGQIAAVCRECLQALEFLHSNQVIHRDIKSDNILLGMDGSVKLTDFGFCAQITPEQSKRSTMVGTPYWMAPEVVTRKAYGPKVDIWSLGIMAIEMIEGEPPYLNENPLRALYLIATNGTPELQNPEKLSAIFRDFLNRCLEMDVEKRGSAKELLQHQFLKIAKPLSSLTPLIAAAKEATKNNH
Readout: ΔTm

Example entries and their recorded answers appear below.
1) CNc1ncc2cc(-c3ccc(-c4cccc(C)n4)cc3Cl)c(=O)n(C[C@H]3CC[C@H](N)CC3)c2n1 ... 8.4 °C
2) CNc1ncc2cc(-c3ccc(-c4cccc(C)n4)cc3Cl)c(=O)n(CCCO)c2n1 ... 4.5 °C

The recorded ΔTm for entry `Cc1cccc(-c2ccc(-c3cc4cnc(NCCCN5CCOCC5)nc4n(CCCCN)c3=O)c(Cl)c2)n1` equals 4.1 °C

The recorded ΔTm for entry `CNc1ncc2cc(-c3ccc(-c4cccc(C)n4)cc3Cl)c(=O)n(CCO)c2n1` equals 5 °C

###

Biological target: Serine/threonine-protein kinase 3 (Homo sapiens) (UniProt Q13188)
Sequence (whole entry): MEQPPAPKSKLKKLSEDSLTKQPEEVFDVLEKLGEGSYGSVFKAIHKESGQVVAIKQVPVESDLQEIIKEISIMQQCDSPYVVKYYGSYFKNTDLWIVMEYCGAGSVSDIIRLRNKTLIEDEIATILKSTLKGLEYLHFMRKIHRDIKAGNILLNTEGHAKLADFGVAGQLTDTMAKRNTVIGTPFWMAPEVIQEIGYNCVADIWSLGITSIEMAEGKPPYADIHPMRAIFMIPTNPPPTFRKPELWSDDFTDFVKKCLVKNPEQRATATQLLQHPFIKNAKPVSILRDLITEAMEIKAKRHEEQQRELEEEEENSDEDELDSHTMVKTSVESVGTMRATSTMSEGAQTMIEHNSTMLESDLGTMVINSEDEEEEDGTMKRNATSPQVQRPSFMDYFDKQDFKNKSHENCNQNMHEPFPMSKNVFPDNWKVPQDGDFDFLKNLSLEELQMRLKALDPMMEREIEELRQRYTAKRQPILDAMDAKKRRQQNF
Assay: Binding affinity to recombinant MST2 (unknown origin) assessed as change in melting temperature by DSF analysis
Each item that follows carries a reported ΔTm.
Write the number in °C without appending the unit.

1) Cc1cccc(-c2ccc(-c3cc4cnc(NCCCc5ccc(N)cc5)nc4n(CCCCN)c3=O)c(Cl)c2)n1 ... 7.2
2) CNc1ncc2cc(-c3ccc(-c4cccc(C)n4)cc3Cl)c(=O)n(C[C@H]3CC[C@H](N)CC3)c2n1 ... 10.8
3) CNc1ncc2cc(-c3ccc(-c4cccc(C)n4)cc3Cl)c(=O)n(CCCO)c2n1 ... 6.3

The recorded ΔTm for entry `Cc1cccc(-c2ccc(-c3cc4cnc(NC(CO)CO)nc4n(CCCCN)c3=O)c(Cl)c2)n1` equals 4.6

The recorded ΔTm for entry `Cc1cccc(-c2ccc(-c3cc4cnc(Nc5ccc(CCCO)cc5)nc4n(CCCCN)c3=O)c(Cl)c2)n1` equals 13.7

The recorded ΔTm for entry `Cc1cccc(-c2ccc(-c3cc4cnc(Nc5ccc(F)c(CO)c5)nc4n(CCCCN)c3=O)c(Cl)c2)n1` equals 16

The recorded ΔTm for entry `Cc1cccc(-c2ccc(-c3cc4cnc(Nc5cc(C(F)(F)F)ccc5C)nc4n(CCCCN)c3=O)c(Cl)c2)n1` equals 10.2

###

target: Serine/threonine-protein kinase 26 (Homo sapiens, UniProt Q9P289); experiment: Inhibition of MST4 (unknown origin) expressed in HEK293T cells using NanoGlo as substrate incubated for 20 hrs by NanoBRET assay
Sequence (Q9P289 whole entry): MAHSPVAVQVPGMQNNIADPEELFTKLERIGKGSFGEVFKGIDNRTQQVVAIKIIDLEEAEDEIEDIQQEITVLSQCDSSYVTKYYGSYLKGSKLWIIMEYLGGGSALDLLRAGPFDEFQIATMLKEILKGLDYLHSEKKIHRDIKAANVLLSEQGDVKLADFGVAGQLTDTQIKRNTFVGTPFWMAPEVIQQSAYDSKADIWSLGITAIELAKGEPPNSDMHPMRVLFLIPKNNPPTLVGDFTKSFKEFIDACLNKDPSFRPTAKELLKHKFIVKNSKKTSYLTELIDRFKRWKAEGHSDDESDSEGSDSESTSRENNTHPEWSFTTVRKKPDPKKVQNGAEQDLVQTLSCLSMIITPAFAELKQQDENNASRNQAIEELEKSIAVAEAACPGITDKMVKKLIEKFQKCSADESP
Readout: pEC50
Please note pEC50 is a logarithmic value: minus log10 of concentration in mol/L. Answer with that number alone.

1) CNc1ncc2cc(-c3ccc(-c4cccc(C)n4)cc3Cl)c(=O)n(CCCCCN)c2n1 ... 5.68
2) CNc1ncc2cc(-c3ccc(-c4cccc(C)n4)cc3Cl)c(=O)n(CCCCCO)c2n1 ... 5.66
3) COc1ccc(O)c(Nc2ncc3cc(-c4ccc(-c5cccc(C)n5)cc4Cl)c(=O)n(CCCCN)c3n2)c1 ... 6.10
4) CNc1ncc2cc(-c3ccc(-c4cccc(C)n4)cc3Cl)c(=O)n(CCO)c2n1 ... 5.44
5) Cc1cccc(-c2ccc(-c3cc4cnc(NCCCN5CCOCC5)nc4n(CCCCN)c3=O)c(Cl)c2)n1 ... 6.94

The recorded pEC50 for entry `CNc1ncc2cc(-c3ccc(-c4cccc(C)n4)cc3Cl)c(=O)n(CCCO)c2n1` equals 5.35

The recorded pEC50 for entry `Cc1cccc(-c2ccc(-c3cc4cnc(NCCCN5CCNCC5)nc4n(CCCCN)c3=O)c(Cl)c2)n1` equals 5.55

The recorded pEC50 for entry `CNc1ncc2cc(-c3ccc(-c4cccc(C)n4)cc3Cl)c(=O)n(CCCOC)c2n1` equals 5.12

The recorded pEC50 for entry `Cc1cccc(-c2ccc(-c3cc4cnc(NCCCc5ccc(N)cc5)nc4n(CCCCN)c3=O)c(Cl)c2)n1` equals 6.17

The recorded pEC50 for entry `Cc1cccc(-c2ccc(-c3cc4cnc(Nc5cc(C(F)(F)F)ccc5C)nc4n(CCCCN)c3=O)c(Cl)c2)n1` equals 5.66
